B1: RAD54B (parent)
chain: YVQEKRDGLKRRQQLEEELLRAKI

- Variants of: B1
- protocolDescription: protein stability index of a GFP-peptide fusion (GPS, HEK-293T) (PSI 1-6); higher = more stable;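 note: lentivirally expressed fusions sorted by FACS into six bins by GFP to DsRed ratio, PSI derived from sequencing read proportions per bin multiplied by bin number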
- measurementParameters: c terminus: a fixed tail appended
Listing of recorded protein stability index by entry.
measurementKind: protein stability index

{"columns": ["variantLabel", "result"],
 "data": [
  ["E18A", 2.02],
  ["K10D", 2.04],
  ["L20A", 1.95],
  ["L20Y", 2.26],
  ["E16Y", 1.73],
  ["G8L", 2.45],
  ["R11S", 2.36],
  ["L20S", 1.67],
  ["R6T", 2.49],
  ["L20E", 2.25],
  ["E17V", 2.25],
  ["E4M", 1.84],
  ["E18R", 1.88],
  ["Q13W", 1.98],
  ["K10S", 2.49],
  ["L20C", 1.59],
  ["R11C", 1.81],
  ["L15P", 1.51],
  ["R11D", 2.62],
  ["Q14C", 1.77],
  ["R21T", 2.26],
  ["I24M", 2.05],
  ["D7H", 1.67],
  ["Q13K", 1.46],
  ["Y1A", 3.7],
  ["V2D", 4.46],
  ["L19C", 1.95],
  ["E17T", 2.08],
  ["I24E", 2.17],
  ["Y1R", 3.77],
  ["Q14H", 1.94],
  ["R11P", 2.25],
  ["G8P", 2.12],
  ["L9D", 2.92],
  ["R21S", 2.97],
  ["R21M", 1.96],
  ["Q3S", 1.75]
]}
